- target.system: NRAS Q61R (Homo sapiens, UniProt P01111+P62937, Q61R)
- Sequence (P01111 whole entry Q61R): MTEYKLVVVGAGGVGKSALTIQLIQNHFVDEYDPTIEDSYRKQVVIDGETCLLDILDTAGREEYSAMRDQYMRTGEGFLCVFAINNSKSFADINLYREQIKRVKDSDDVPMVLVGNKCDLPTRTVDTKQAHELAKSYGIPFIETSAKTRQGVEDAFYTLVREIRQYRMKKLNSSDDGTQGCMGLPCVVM
- Sequence (P62937 whole entry): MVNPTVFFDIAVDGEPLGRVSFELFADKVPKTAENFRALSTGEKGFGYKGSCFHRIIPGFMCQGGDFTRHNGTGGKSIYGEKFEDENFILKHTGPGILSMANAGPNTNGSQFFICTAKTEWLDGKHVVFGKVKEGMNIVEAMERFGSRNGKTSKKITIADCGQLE
- assay.info: Disruption of BRAF RBD interaction with Ras (FRET / MOA assay, with Cyclophilin A)
- Type: biochemical
- condition.info: NRAS Q61R; read-out: NRAS Q61R FRET data IC50
pIC50: −log10 of the molar value.
Measured pIC50 of individual entries

[
  {
    "molecule": "CCn1c(-c2cccnc2[C@H](C)OC)c2c3cc(ccc31)-c1csc(n1)C[C@H](NC(=O)[C@H](C(C)C)N(C)C(=O)N1CC(CO)C1)C(=O)N1CCC[C@H](N1)C(=O)OCC(C)(C)C2 (atropisomer, axis not shown) [Example A356]",
    "pIC50": "7.00 to 8.00"
  },
  {
    "molecule": "C=CC(=O)N1CC[C@H](C(=O)N(C)[C@H](C(=O)N[C@H]2Cc3cc(O)cc(c3)-c3ccc4c(c3)c(c(-c3c(CCOC)cccc3OC)n4CC)CC(C)(C)COC(=O)[C@@H]3CCCN(N3)C2=O)C(C)C)C1 [Example A080]",
    "pIC50": "< 5.00"
  },
  {
    "molecule": "C=CS(=O)(=O)N1CC[C@H](C(=O)N(C)[C@H](C(=O)N[C@H]2Cc3nc(cs3)-c3ccc4c(c3)c(c(-c3cncnc3)n4CC)CC(C)(C)COC(=O)[C@@H]3CCCN(N3)C2=O)C(C)C)C1 [Example A170]",
    "pIC50": "< 5.00"
  },
  {
    "molecule": "CCn1c(-c2cccnc2[C@H](C)OC)c2c3cc(ccc31)-c1cc(O)cc(c1)C[C@H](NC(=O)[C@H](C(C)C)N(C)C(=O)OC1CC1)C(=O)N1CCC[C@H](N1)C(=O)OCC(C)(C)C2 [Example A174]",
    "pIC50": "6.00 to 7.00"
  },
  {
    "molecule": "CCn1c(-c2cccnc2[C@H](C)OC)c2c3cc(ccc31)-c1cc(O)cc(c1)C[C@H](NC(=O)[C@H](C(C)C)N(C)C(=O)[C@H]1C[C@@H]1C)C(=O)N1CCC[C@H](N1)C(=O)OCC(C)(C)C2 [Example A287]",
    "pIC50": "6.00 to 7.00"
  }
]

// pIC50 value for CCn1c(-c2cc(C3CCN(C)CC3)cnc2[C@H](C)OC)c2c3cc(ccc31)-c1csc(n1)C[C@H](NC(=O)[C@H](C(C)C)N(C)C(=O)N1CCOCC1)C(=O)N1CCC[C@H](N1)C(=O)OCC(C)(C)C2 (atropisomer, axis not shown) [Example A505] : 7.00 to 8.00

// pIC50 value for CCn1c(-c2cccnc2[C@H](C)OC)c2c3cc(ccc31)-c1csc(n1)C[C@H](NC(=O)[C@H](C(C)C)N(C)C(=O)N1CC[C@H](N(C)C)C1)C(=O)N1CCC[C@H](N1)C(=O)OCC(C)(C)C2 [Example A603] : 6.00 to 7.00

Record C=CC(=O)N1CC[C@H](C(=O)N(C)[C@H](C(=O)N[C@H]2Cc3cc(O)cc(c3)-c3ccc4c(c3)c(c(-c3c(F)cccc3CCOC)n4CC)CC(C)(C)COC(=O)[C@@H]3CCCN(N3)C2=O)C(C)C)C1 [Example A025] , field pIC50: < 5.00

Query CO[C@@H](C)c1ncccc1-c1c2c3cc(ccc3n1CC(F)(F)F)-c1csc(n1)C[C@H](NC(=O)[C@H](C(C)C)N(C)C(=O)N1CCC3(CC1)CN(C(=O)/C=C/CF)C3)C(=O)N1CCCC(N1)C(=O)OCC(C)(C)C2 (some centres unmarked) [Example A602] yields pIC50 of 7.00 to 8.00

Summary for this molecule, CCn1c(-c2cccnc2[C@H](C)OC)c2c3cc(ccc31)-c1csc(n1)C[C@H](NC(=O)[C@H](CC1CC1)N(C)C(=O)N1CC(OC)C1)C(=O)N1CCC[C@H](N1)C(=O)OCC(C)(C)C2 (atropisomer, axis not shown) [Example A578] : pIC50 is 7.00 to 8.00

Lookup result for CCn1c(-c2cc(C3CCN(C)CC3)cnc2[C@H](C)OC)c2c3cc(ccc31)-c1csc(n1)C[C@H](NC(=O)[C@H](C(C)C)N(C)C(=O)N(C)C)C(=O)N1CCC[C@H](N1)C(=O)OCC(C)(C)C2 (atropisomer, axis not shown) [Example A484] ; measured pIC50: 6.00 to 7.00

Documented pIC50 of CCn1c(-c2cccnc2[C@H](C)OC)c2c3cc(ccc31)-c1csc(n1)C[C@H](NC(=O)[C@H](C(C)C)N(C)C(=O)N1CCN(C)CC1)C(=O)N1CCC[C@H](N1)C(=O)OCC(C)(C)C2 [Example A570] : 6.00 to 7.00

# pIC50 (molecule: C=CC(=O)N1CCO[C@@H]2CCN(C(=O)N(C)[C@H](C(=O)N[C@H]3Cc4nc(cs4)-c4ccc5c(c4)c(c(-c4cccnc4[C@H](C)OC)n5CC)CC(C)(C)COC(=O)C4CCCN(N4)C3=O)C(C)C)CC21 (some centres unmarked) [Example A596] ) is 7.00 to 8.00

What the record says about CCn1c(-c2cc(N3CCN(C)CC3)cnc2[C@H](C)OC)c2c3cc(ccc31)-c1csc(n1)C[C@H](NC(=O)[C@H](C(C)C)N(C)C(=O)[C@@H]1OCC[C@@H]1c1ccccc1)C(=O)N1CCC[C@H](N1)C(=O)OCC(C)(C)C2 (atropisomer, axis not shown) [Example A583] : pIC50 is 7.00 to 8.00

Sure, the documented pIC50 for CCn1c(-c2cccnc2[C@H](C)OC)c2c3cc(ccc31)-c1csc(n1)C[C@H](NC(=O)[C@H](C(C)C)N(C)C(=O)N1CC[C@H]1C(=O)NC)C(=O)N1CC(C)C[C@H](N1)C(=O)OCC(C)(C)C2 (some centres unmarked) [Example A282] is 5.00 to 6.00

What the record says about CCn1c(-c2cccnc2[C@H](C)OC)c2c3cc(ccc31)-c1csc(n1)C[C@H](NC(=O)[C@H]1CCCO1)C(=O)N1CCC[C@H](N1)C(=O)OCC(C)(C)C2 (atropisomer, axis not shown) [Example A315] : pIC50 is 5.00 to 6.00

Lab book: pIC50 of CCn1c(-c2cccnc2[C@H](C)OC)c2c3cc(ccc31)-c1cc(O)cc(c1)C[C@H](NC(=O)C13CCCC1C3(F)F)C(=O)N1CCC[C@H](N1)C(=O)OCC(C)(C)C2 (some centres unmarked) [Example A180] noted as 5.00 to 6.00
